- Tested on: PPARg DBDmut:RXRa IVT, anti-PPARg (DBD mutation: PPARg1 K132A/R137A, NR concentration 270 nM, RXRa partner concentration 90 nM)
- test protocol: PBM binding z-score (relative to random genomic background probes); higher = stronger binding; sequences stand for … in GC…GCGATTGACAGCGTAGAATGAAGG
PBM binding z-score for assorted sequences

Some solved entries appear below for comparison.
{"sequence chain": "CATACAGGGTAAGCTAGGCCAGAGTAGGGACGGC", "PBM binding z-score": -0.00431}
{"sequence chain": "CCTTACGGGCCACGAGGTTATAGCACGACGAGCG", "PBM binding z-score": -0.462}
{"sequence chain": "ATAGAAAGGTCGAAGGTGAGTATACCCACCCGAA", "PBM binding z-score": 1.17}
{"sequence chain": "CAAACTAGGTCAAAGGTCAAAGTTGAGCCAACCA", "PBM binding z-score": 2.5}

[in] Give reported PBM binding z-score value for `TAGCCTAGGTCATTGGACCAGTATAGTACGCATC`
[out] 0.686

[in] Tell me its PBM binding z-score given `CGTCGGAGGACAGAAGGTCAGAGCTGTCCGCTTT` as the entry.
[out] -1.84

[in] Return PBM binding z-score (reported value) for this sequence: `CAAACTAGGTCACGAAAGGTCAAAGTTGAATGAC`
[out] 2.54

[in] Give the reported PBM binding z-score for this sequence. `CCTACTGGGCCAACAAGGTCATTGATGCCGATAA`
[out] -0.0965

[in] Please give the documented PBM binding z-score of `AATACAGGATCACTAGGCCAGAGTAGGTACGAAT`
[out] 1.21

###

# PBM binding z-score values compiled below
- Tested on: LXRb homodimer (NR concentration 270 nM)
- test protocol: PBM binding z-score (relative to random genomic background probes); higher = stronger binding; sequences stand for … in GC…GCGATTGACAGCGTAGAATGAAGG
Response field accepts a number only; no unit should be typed.

{"sequence chain": "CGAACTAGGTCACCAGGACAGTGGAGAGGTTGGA", "PBM binding z-score": -0.484}
{"sequence chain": "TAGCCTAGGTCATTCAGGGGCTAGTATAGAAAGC", "PBM binding z-score": 0.83}
{"sequence chain": "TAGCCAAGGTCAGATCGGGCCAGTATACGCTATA", "PBM binding z-score": 0.145}
{"sequence chain": "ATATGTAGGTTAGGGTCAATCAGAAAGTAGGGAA", "PBM binding z-score": 1.23}
{"sequence chain": "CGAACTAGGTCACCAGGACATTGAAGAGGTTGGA", "PBM binding z-score": -0.284}
{"sequence chain": "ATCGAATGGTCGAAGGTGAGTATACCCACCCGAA", "PBM binding z-score": -0.158}
{"sequence chain": "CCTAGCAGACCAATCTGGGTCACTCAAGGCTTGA", "PBM binding z-score": -1.09}
{"sequence chain": "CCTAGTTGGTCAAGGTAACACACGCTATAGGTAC", "PBM binding z-score": 0.295}

[in] Return value of PBM binding z-score for input `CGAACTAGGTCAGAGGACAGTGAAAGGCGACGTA` , no commentary.
[out] -0.968

[in] Tell us which PBM binding z-score value is on record for `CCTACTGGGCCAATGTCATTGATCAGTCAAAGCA`
[out] -0.826

[in] Report PBM binding z-score for `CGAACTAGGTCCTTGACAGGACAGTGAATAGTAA`
[out] -0.907

[in] Input `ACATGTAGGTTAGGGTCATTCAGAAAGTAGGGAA` , output reported PBM binding z-score.
[out] 1.99
